B1: F-BAR and double SH3 domains protein 1, residues 467 to 528; numbered along this chain, Q86WN1 (parent)
chain: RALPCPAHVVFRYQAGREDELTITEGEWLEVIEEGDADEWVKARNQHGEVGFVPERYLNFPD

Variants of: B1
Test: abundance fitness (aPCA) (normalised: wild type 0, dead -1); higher = more abundant; growth selection in yeast, the domain comes from the species named
Details: Homo sapiens
Everything with abundance fitness lower than -0.2 is Not met; everything else, including exactly -0.2, is Met.

Please tell me: is the variant "D36S" at or over -0.2 in terms of abundance fitness?
Met

Please tell me: is the variant "A7K" at or over -0.2 in terms of abundance fitness?
Not met

Please tell me: is the variant "D19V" at or over -0.2 in terms of abundance fitness?
Met

Please tell me: is the variant "K42S" at or over -0.2 in terms of abundance fitness?
Not met

Please tell me: is the variant "A37T" at or over -0.2 in terms of abundance fitness?
Met

Please tell me: is the variant "L29N" at or over -0.2 in terms of abundance fitness?
Not met

Please tell me: is the variant "E20M" at or over -0.2 in terms of abundance fitness?
Not met

Please tell me: is the variant "H8Q" at or over -0.2 in terms of abundance fitness?
Met

Please tell me: is the variant "L29A" at or over -0.2 in terms of abundance fitness?
Not met

Please tell me: is the variant "R17F" at or over -0.2 in terms of abundance fitness?
Not met

Source of measurements: the Human Domainome abundance scans (Beltran et al. 2025)
